The measured values listed here are drawn from patent US20120142705A1.

# tested-system: Recombinant human liver GK1 (GST-GK) (Homo sapiens, UniProt P35557)
# Construct: made in house; host or cells: E. coli
# Sequence (P35557 1-466 isoform P35557-2): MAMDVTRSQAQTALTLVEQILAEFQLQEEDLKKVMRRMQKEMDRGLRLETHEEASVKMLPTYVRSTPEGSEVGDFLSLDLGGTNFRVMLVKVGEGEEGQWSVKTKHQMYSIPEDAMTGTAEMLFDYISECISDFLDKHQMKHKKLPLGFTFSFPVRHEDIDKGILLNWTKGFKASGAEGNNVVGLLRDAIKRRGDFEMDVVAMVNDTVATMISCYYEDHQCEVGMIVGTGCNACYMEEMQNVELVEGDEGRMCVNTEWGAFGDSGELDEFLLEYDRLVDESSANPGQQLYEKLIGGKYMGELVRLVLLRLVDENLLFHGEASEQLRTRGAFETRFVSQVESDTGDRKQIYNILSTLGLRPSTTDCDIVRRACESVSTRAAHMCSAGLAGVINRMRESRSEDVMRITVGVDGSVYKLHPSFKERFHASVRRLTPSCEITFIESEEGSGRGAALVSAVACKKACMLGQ
# experiment-summary: In vitro glucokinase activity, G6PDH-coupled spectrophotometric assay
# Assay type: biochemical
# conditions: @ 30 uM; 5 mM D-glucose, 30° C.
Examples of compounds with documented fold induction at 30 µM follow.

- compound: "CC(C)CC(C(=O)Nc1ccn(C)n1)N1C(=O)Cc2c(Cl)cccc21 (stereo not shown)"
  fold induction at 30 µM: 1.39
- compound: "COc1ccc2c(c1)C(=O)C(=O)N2C(CC(C)C)C(=O)Nc1nccs1 (stereo not shown)"
  fold induction at 30 µM: 1.39
- compound: "CC(C)CC(C(=O)Nc1cnccn1)N1C(=O)C(=O)c2cc(Br)ccc21 (stereo not shown)"
  fold induction at 30 µM: 1.32
- compound: "CC(C)CC(C(=O)Nc1cnccn1)N1C(=O)C(=O)c2cc(Cl)ccc21 (stereo not shown)"
  fold induction at 30 µM: 1.3
- compound: "Cc1ccc2c(c1)CC(=O)N2C(CC(C)C)C(=O)Nc1ccn(C)n1 (stereo not shown)"
  fold induction at 30 µM: 1.23
- compound: "COc1ccc2c(c1)CC(=O)N2C(CC(C)C)C(=O)Nc1cnccn1 (stereo not shown)"
  fold induction at 30 µM: 1.31
- compound: "Cc1ccc2c(c1)C(=O)C(=O)N2C(CC(C)C)C(=O)Nc1cnccn1 (stereo not shown)"
  fold induction at 30 µM: 1.29
- compound: "CC(C)CC(C(=O)Nc1nccs1)N1C(=O)C(=O)c2ccccc21 (stereo not shown)"
  fold induction at 30 µM: 1.2
- compound: "CC(C)CC(C(=O)Nc1ccn(C)n1)N1C(=O)Cc2cc(Cl)ccc21 (stereo not shown)"
  fold induction at 30 µM: 1.22
- compound: "CC(C)CC(C(=O)Nc1cnccn1)N1C(=O)C(=O)c2c(Cl)cccc21 (stereo not shown)"
  fold induction at 30 µM: 1.39
- compound: "Cn1ccc(NC(=O)C(CC2CCCC2)N2C(=O)C(=O)c3ccccc32)n1 (stereo not shown)"
  fold induction at 30 µM: 1.47
- compound: "CC(C)CC(C(=O)Nc1nccs1)N1C(=O)C(=O)c2cc(Br)ccc21 (stereo not shown)"
  fold induction at 30 µM: 1.5
- compound: "Cc1ccc2c(c1)C(=O)C(=O)N2C(CC(C)C)C(=O)Nc1ccccn1 (stereo not shown)"
  fold induction at 30 µM: 1.16
- compound: "COc1ccc2c(c1)C(=O)C(=O)N2C(CC(C)C)C(=O)Nc1ccccn1 (stereo not shown)"
  fold induction at 30 µM: 1.49
- compound: "Cc1ccc2c(c1)C(=O)C(=O)N2C(CC(C)C)C(=O)Nc1ccn(C)n1 (stereo not shown)"
  fold induction at 30 µM: 1.44
- compound: "COc1ccc2c(c1)C(=O)C(=O)N2C(CC(C)C)C(=O)Nc1cnccn1 (stereo not shown)"
  fold induction at 30 µM: 1.16
- compound: "CC(C)CC(C(=O)Nc1nccs1)N1C(=O)C(=O)c2cc(Cl)ccc21 (stereo not shown)"
  fold induction at 30 µM: 1.4
- compound: "CC(C)CC(C(=O)Nc1ccn(C)n1)N1C(=O)C(=O)c2c(Cl)cccc21 (stereo not shown)"
  fold induction at 30 µM: 1.24
- compound: "Cc1ccc2c(c1)C(=O)C(=O)N2C(CC(C)C)C(=O)Nc1nccs1 (stereo not shown)"
  fold induction at 30 µM: 1.16
- compound: "CC(C)CC(C(=O)Nc1ccn(C)n1)N1C(=O)C(=O)c2cc(Br)ccc21 (stereo not shown)"
  fold induction at 30 µM: 1.32
- compound: "CC(C)CC(C(=O)Nc1ccn(C)n1)N1C(=O)C(=O)c2cc(Cl)ccc21 (stereo not shown)"
  fold induction at 30 µM: 1.21
- compound: "CC(C)CC(C(=O)Nc1ccccn1)N1C(=O)C(=O)c2ccccc21 (stereo not shown)"
  fold induction at 30 µM: 1.33

----------
Examples of compounds with documented SC1.5 (concentration of activator that produced a 50% increase in the activity of GK) follow.
# tested-system: Recombinant human liver GK1 (GST-GK) (Homo sapiens, UniProt P35557)
# Construct: made in house; host or cells: E. coli
# experiment-summary: In vitro glucokinase activity, G6PDH-coupled spectrophotometric assay
# Type: biochemical
# conditions: 5 mM D-glucose, 30° C., pH 7.1
assay-readout: SC1.5 (concentration of activator that produced a 50% increase in the activity of GK) (µM)

- compound: "O=C1C(=O)N(C(CC2CCCC2)C(=O)Nc2ccccn2)c2ccc(OC(F)(F)F)cc21 (stereo not shown)"
  result-value: 0.33
- compound: "O=C1C(=O)N(C(CC2CCCC2)C(=O)Nc2ccccn2)c2ccccc21 (stereo not shown)"
  result-value: 5.19
- compound: "COc1ccc2c(c1)CC(=O)N2C(CC1CCCC1)C(=O)Nc1ccccn1 (stereo not shown)"
  result-value: 1.74
- compound: "Cc1ccc2c(c1)N(C(CC1CCCC1)C(=O)Nc1ccccn1)C(=O)C2 (stereo not shown)"
  result-value: 0.23
- compound: "O=C1C(=O)N(C(CC2CCCC2)C(=O)Nc2ccn(C[C@@H](O)CO)n2)c2ccc(Cl)cc21 (stereo partly shown)"
  result-value: 3.36
- compound: "O=C1C(=O)N(C(CC2CCCC2)C(=O)Nc2nccs2)c2cccc(Cl)c21 (stereo not shown)"
  result-value: 3.91
- compound: "COc1ccc2c(c1)CC(=O)N2C(CC(C)C)C(=O)Nc1ccccn1 (stereo not shown)"
  result-value: 13.89
- compound: "CC(C)CC(C(=O)Nc1nccs1)N1C(=O)Cc2c(Cl)cccc21 (stereo not shown)"
  result-value: 9.95
- compound: "CC(C)CC(C(=O)Nc1cnccn1)N1C(=O)C(=O)c2cc(OC(F)(F)F)ccc21 (stereo not shown)"
  result-value: 19.72
- compound: "O=C(Nc1cnccn1)C(CC1CCCC1)N1C(=O)Cc2cc(Br)ccc21 (stereo not shown)"
  result-value: 1.28
- compound: "COc1ccc2c(c1)C(=O)C(=O)N2C(CC1CCCC1)C(=O)Nc1ccn(C)n1 (stereo not shown)"
  result-value: 23.88
- compound: "Cc1ccc2c(c1)CC(=O)N2C(CC1CCCC1)C(=O)Nc1nccs1 (stereo not shown)"
  result-value: 2.45
- compound: "Cc1ccc2c(c1)CC(=O)N2C(CC1CCCC1)C(=O)Nc1ccccn1 (stereo not shown)"
  result-value: 3.83
- compound: "COc1ccc2c(c1)CC(=O)N2C(CC1CCCC1)C(=O)Nc1nccs1 (stereo not shown)"
  result-value: 3.6
- compound: "Cn1ccc(NC(=O)C(CC2CCCC2)N2C(=O)C(=O)c3cc(OC(F)(F)F)ccc32)n1 (stereo not shown)"
  result-value: 1.65
- compound: "Cn1ccc(NC(=O)C(CC2CCCC2)N2C(=O)C(=O)c3cc(Cl)ccc32)n1 (stereo not shown)"
  result-value: 7.27
- compound: "O=C(Nc1cnccn1)C(CC1CCCC1)N1C(=O)Cc2c(Cl)cccc21 (stereo not shown)"
  result-value: 2.66
- compound: "O=C1C(=O)N(C(CC2CCCC2)C(=O)Nc2cnccn2)c2cc(Cl)ccc21 (stereo not shown)"
  result-value: 0.9
- compound: "Cc1ccc2c(c1)N(C(CC1CCCC1)C(=O)Nc1nccs1)C(=O)C2 (stereo not shown)"
  result-value: 0.53
- compound: "CC(C)CC(C(=O)Nc1ccccn1)N1C(=O)C(=O)c2c(Cl)cccc21 (stereo not shown)"
  result-value: 13.42
- compound: "CC(C)CC(C(=O)Nc1nccs1)N1C(=O)Cc2cc(Cl)ccc21 (stereo not shown)"
  result-value: 6.74
- compound: "CC(C)CC(C(=O)Nc1ccn(C)n1)N1C(=O)Cc2cc(OC(F)(F)F)ccc21 (stereo not shown)"
  result-value: 8.12

----------
# tested-system: Recombinant human liver GK1 (GST-GK) (Homo sapiens)
# Construct: made in house; host or cells: E. coli
# experiment-summary: In vitro glucokinase activity, G6PDH-coupled spectrophotometric assay
# Type: biochemical
# conditions: 5 mM D-glucose, 30° C., pH 7.1
assay-readout: SC1.5 (concentration of activator that produced a 50% increase in the activity of GK) (µM)

- molecule: "CC(C)CC(C(=O)Nc1cnccn1)N1C(=O)Cc2c(Cl)cccc21 (stereo not drawn)"
  tested-system: "Recombinant human liver GK1 (GST-GK) (Homo sapiens)"
  result-value: 16.78
- molecule: "O=C1C(=O)N(C(CC2CCCC2)C(=O)Nc2ccccn2)c2ccc(Br)cc21 (stereo not drawn)"
  tested-system: "Recombinant human liver GK1 (GST-GK) (Homo sapiens)"
  result-value: 0.95
- molecule: "O=C1C(=O)N(C(CC2CCCC2)C(=O)Nc2ccccn2)c2cc(Cl)ccc21 (stereo not drawn)"
  tested-system: "Recombinant human liver GK1 (GST-GK) (Homo sapiens)"
  result-value: 0.23
- molecule: "Cc1ccc2c(c1)CC(=O)N2C(CC1CCCC1)C(=O)Nc1ccn(C)n1 (stereo not drawn)"
  tested-system: "Recombinant human liver GK1 (GST-GK) (Homo sapiens)"
  result-value: 11.29
- molecule: "O=C(Nc1ccccn1)C(CC1CCCC1)N1C(=O)Cc2ccc(Cl)cc21 (stereo not drawn)"
  tested-system: "Recombinant human liver GK1 (GST-GK) (Homo sapiens)"
  result-value: 0.1
- molecule: "CC(C)CC(C(=O)Nc1nccs1)N1C(=O)C(=O)c2cc(OC(F)(F)F)ccc21 (stereo not drawn)"
  tested-system: "Recombinant human liver GK1 (GST-GK) (Homo sapiens)"
  result-value: 5.97
- molecule: "CC(C)CC(C(=O)Nc1cnccn1)N1C(=O)Cc2cc(Cl)ccc21 (stereo not drawn)"
  tested-system: "Recombinant human liver GK1 (GST-GK) (Homo sapiens)"
  result-value: 20.67
- molecule: "O=C(Nc1nccs1)C(CC1CCCC1)N1C(=O)Cc2c(Cl)cccc21 (stereo not drawn)"
  tested-system: "Recombinant human liver GK1 (GST-GK) (Homo sapiens)"
  result-value: 1.98
- molecule: "Cn1ccc(NC(=O)C(CC2CCCC2)N2C(=O)C(=O)c3ccc(Cl)cc32)n1 (stereo not drawn)"
  tested-system: "Recombinant human liver GK1 (GST-GK) (Homo sapiens)"
  result-value: 2.24
